- System: Plasmodium falciparum
- Measurement protocol: GSK_TCMDC: Inhibition of Plasmodium falciparum 3D7 in whole erythrocytes, using parasite LDH activity as an index of growth.
- Type: functional, organism-based
- Condition description: Plasmodium falciparum, 3D7
Value type: XC50 (nM)
Numbers only here, please. The scale is nM.

> print(dat)
                                   compound  value.type  value
1  CC(Oc1ccc(C(=O)c2ccc(F)cc2)cc1)C(=O)N1CCc2ccccc21 (stereo not given)        XC50    413
2             CN(C)CCCNc1c2ccccc2nc2ccccc12        XC50   1040
3  O=C(/C=C/c1ccc(F)cc1)NC1CCC(CCN2CCCN(c3ccc(C(F)(F)F)cn3)CC2)CC1 (stereo not given)        XC50   1080
4   O=C(Cn1nc(Br)nc1[N+](=O)[O-])NCC1CCCCC1        XC50   1100
5     CC1(C)N=C(N)N=C(N)N1OCCc1ccc2ccccc2c1        XC50    3.2
6  Cc1c(Cc2ccccc2)c(=O)oc2c(C)c3c(cc12)CN(CC(C)c1ccccc1)CO3 (stereo not given)        XC50    454
7  COc1ccc2ccccc2c1C=NN=c1cc(C)[nH]c2cc(C(F)(F)F)ccc12        XC50   1040
8         O=c1nc(C=Cc2ccc(Br)cc2)oc2ccccc12        XC50   1050

Exam item: I have this compound here, O=C(Nc1cccc(-c2cccc(-c3nc4ccccc4[nH]3)c2)c1)c1ccncc1 , and I need its recorded XC50.
Marked response: 479

Exam item: I have this compound here, CC(CN(C)C)Oc1ccc2nc(-c3cccc(OCc4ccccc4)c3)[nH]c2c1C#N (stereo not given) , and I need its recorded XC50.
Marked response: 407

Exam item: I have this compound here, O=c1cc(NCCCN(Cc2cc3c(Cl)cc(Cl)cc3[nH]2)Cc2cc3c(Cl)cc(Cl)cc3[nH]2)[nH]c2ccccc12 , and I need its recorded XC50.
Marked response: 121

Exam item: I have this compound here, CCCCCCNCCOc1ccc(-c2nc(-c3ccccc3)c(-c3ccccc3)[nH]2)cc1 , and I need its recorded XC50.
Marked response: 669

Exam item: I have this compound here, O=C(/C=C/c1ccccc1Cl)Nc1ccc(Br)c(OCCN2CCN(CCN3CCOCC3)CC2)c1 , and I need its recorded XC50.
Marked response: 763

Exam item: I have this compound here, O=[N+]([O-])c1cccc(NC(=S)N2CCCN(Cc3ccc(Cl)cc3Cl)CC2)c1 , and I need its recorded XC50.
Marked response: 925

Exam item: I have this compound here, Cn1c(N=C2NC3(c4ccccn4)NC(=Nc4nc5ccccc5n4C)NC3(c3ccccn3)N2)nc2ccccc21 (stereo not given) , and I need its recorded XC50.
Marked response: 1040

Exam item: I have this compound here, COc1cccc(NC(=O)CSc2nc(-c3ccccc3Cl)ns2)c1 , and I need its recorded XC50.
Marked response: 814

Exam item: I have this compound here, ON=C(c1nc2ccccc2[nH]1)c1nc2ccccc2[nH]1 , and I need its recorded XC50.
Marked response: 1090

Exam item: I have this compound here, CC(=O)Nc1ccc(CNCCc2ccc(NC(=O)c3cc(Cl)cc(Cl)c3)cc2)cc1 , and I need its recorded XC50.
Marked response: 684

Exam item: I have this compound here, CC(=O)N[C@H](C(=O)Nc1ccc(-c2ccc(-c3nc4cc(C(F)(F)F)ccc4[nH]3)cc2)cc1)C(C)C , and I need its recorded XC50.
Marked response: 889

Exam item: I have this compound here, COc1ccc(-c2onc(C(F)(F)F)c2-c2ccc(Br)cc2)c(O)c1 , and I need its recorded XC50.
Marked response: 237

Exam item: I have this compound here, CC(=O)N1CCC(C(=O)Nc2ccc(-c3cccc(-c4nc5cccc(C)c5[nH]4)c3)cc2)CC1 , and I need its recorded XC50.
Marked response: 313

Exam item: I have this compound here, COc1ccc2nccc([C@@H](O)CN3CCC(NC(=O)C(c4cc5ccccc5o4)N4CCC(Cc5ccccc5)CC4)CC3)c2c1 (stereo not given in full) , and I need its recorded XC50.
Marked response: 247

Exam item: I have this compound here, CCC[C@@H]([C@@H](CC1CCCCC1)C(=O)N[C@H](C(=O)Nc1nccs1)[C@H](C)O)N(O)C=O , and I need its recorded XC50.
Marked response: 148

Exam item: I have this compound here, COc1ccc(OC)c2c1CCN(C)C2Cc1cccc2ccccc12 (stereo not given) , and I need its recorded XC50.
Marked response: 1050

Exam item: I have this compound here, N=C(N)Nc1ccc(Cc2ccc(NC(=N)N)cc2)cc1 , and I need its recorded XC50.
Marked response: 255

Exam item: I have this compound here, Nc1nc(N)c2c(ccc3nn(C4CCCC4)cc32)n1 , and I need its recorded XC50.
Marked response: 286

Exam item: I have this compound here, COc1ccc2c(c1)CCCC2C(C)NCC(O)c1cccc(C(F)(F)F)c1 (stereo not given) , and I need its recorded XC50.
Marked response: 345

Exam item: I have this compound here, O=C(NC1CCN(Cc2cccc(C(F)(F)F)c2)CC1)c1ccc(-c2cccc(Cl)c2)s1 , and I need its recorded XC50.
Marked response: 1130
